The values you see were collected from PubChem BioAssay AID1963868.

System: KRAS PDC tumor spheroids (HUVEC+MSC), viability
Experiment: Anticancer human tumor 254851-301-R-J1-PDC patient-derived colon carcinoma cell line growth inhibition [KRAS2]
Conditions: second compound 0.316 µM; first compound 0.0316 µM; stronger effect = lower value
Quick list: viability, T/C per entry.
The reply should contain only the number, in %.

# input Using known records, supply viability, T/C for CN(C)C/C=C/C(=O)Nc1cc2c(Nc3ccc(F)c(Cl)c3)ncnc2cc1O[C@H]1CCOC1 + COc1cc2nc(C)nc(NC(C)c3cc(N)cc(C(F)(F)F)c3)c2cc1OC1CCOC1
# output 88

# input Look up and state reported viability, T/C for CCN1CCN(Cc2ccc(Nc3ncc(F)c(-c4cc(F)c5nc(C)n(C(C)C)c5c4)n3)nc2)CC1 + CC1OCC2(CCN(c3cnc(Sc4ccnc(N)c4Cl)c(N)n3)CC2)C1N
# output 87.5

# input // Input: CCN1CCN(Cc2ccc(Nc3ncc(F)c(-c4cc(F)c5nc(C)n(C(C)C)c5c4)n3)nc2)CC1 + CNCc1ccccc1-c1csc(C(C)Nc2nc(C)nc3cc(OC)c(OC)cc23)c1 . Output its viability, T/C only.
# output 84

###

Each record here notes measured viability, T/C.
System: KRAS PDC tumor spheroids (HUVEC+MSC), viability
Assay: Anticancer human tumor 254851-301-R-J1-PDC cell line growth inhibition [KRAS2];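 note: spheroids exposed to compounds for seven days before readout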;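 for viability, T/C: 100% = DMSO vehicle control luminescence of the spheroids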
Details: second compound 0.316 µM; first compound 0.0316 µM; stronger effect = lower value
Give just the number in %; leave the unit off.

Some molecules with recorded viability, T/C:
# input Item CC1COCCN1c1cc(-c2ccnn2C)c2ccnc(-c3ccn[nH]3)c2n1 (stereo unspecified) + C=CC(=O)N1CCN(c2nc(OCC3CCCN3C)nc3c2CCN(c2cccc4cccc(C)c24)C3)CC1CC#N : provide viability, T/C
# output 97.1

# input Determine from records and report viability, T/C for COc1cc(Nc2ncc3c(n2)-c2ccc(Cl)cc2C(c2c(F)cccc2OC)=NC3)ccc1C(=O)O + CNCc1ccccc1-c1csc(C(C)Nc2nc(C)nc3cc(OC)c(OC)cc23)c1
# output 77.9

# input Give the value of viability, T/C reported for the following: COC(=O)c1ccc2c(C(=Nc3ccc(N(C)C(=O)CN4CCN(C)CC4)cc3)c3ccccc3)c(O)[nH]c2c1 + COc1cc2nc(C)nc(NC(C)c3cc(N)cc(C(F)(F)F)c3)c2cc1OC1CCOC1
# output 88

# input Please report viability, T/C for the following molecule: CC1COCCN1c1cc(-c2ccnn2C)c2ccnc(-c3ccn[nH]3)c2n1 (stereo unspecified) + COc1cc2nc(C)nc(NC(C)c3cc(N)cc(C(F)(F)F)c3)c2cc1OC1CCOC1
# output 112

# input Input CC(C)n1nc(-c2ccc3oc(N)nc3c2)c2c(N)ncnc21 + CNCc1ccccc1-c1csc(C(C)Nc2nc(C)nc3cc(OC)c(OC)cc23)c1 , output reported viability, T/C.
# output 33.8

Further cases:
# input Retrieve viability, T/C measured for O=C(c1cc(Cc2n[nH]c(=O)c3ccccc23)ccc1F)N1CCN(C(=O)C2CC2)CC1 + C=CC(=O)N1CCN(c2nc(OCC3CCCN3C)nc3c2CCN(c2cccc4cccc(C)c24)C3)CC1CC#N and print it.
# output 101

# input Answer with reported viability, T/C of CCN1CCN(Cc2ccc(Nc3ncc(F)c(-c4cc(F)c5nc(C)n(C(C)C)c5c4)n3)nc2)CC1 + COc1cc2nc(C)nc(NC(C)c3cc(N)cc(C(F)(F)F)c3)c2cc1OC1CCOC1
# output 92.2

###

Test system: KRAS PDC tumor spheroids (HUVEC+MSC), viability
Assay: Anticancer human tumor 254851-301-R-J1-PDC cell line growth inhibition [KRAS2];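 note: spheroids exposed to compounds for seven days before readout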;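 for viability, T/C: 100% = DMSO vehicle control luminescence of the spheroids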
Settings: second compound 0.1 µM; first compound 1 µM; stronger effect = lower value
Listing: viability, T/C of selected compounds
Only the number, expressed in %, is required.

Here is how some compounds turned out for viability, T/C.
# input // fetch viability, T/C given entry CCNC(=O)CC1N=C(c2ccc(Cl)cc2)c2cc(OC)ccc2-n2c(C)nnc21 (stereo not drawn) + COc1cc2nc(C)nc(NC(C)c3cc(N)cc(C(F)(F)F)c3)c2cc1OC1CCOC1
# output 84.8

# input Answer with the recorded viability, T/C for the compound listed here: CC1(C)CCC(CN2CCN(c3ccc(C(=O)NS(=O)(=O)c4ccc(NCC5CCOCC5)c([N+](=O)[O-])c4)c(Oc4cnc5[nH]ccc5c4)c3)CC2)=C(c2ccc(Cl)cc2)C1 + COc1cc2nc(C)nc(NC(C)c3cc(N)cc(C(F)(F)F)c3)c2cc1OC1CCOC1
# output 97.6

Attention now turns to another entry.
# input Please report the measured viability, T/C for CC(=O)OC12COC1CC(O)C1(C)C(=O)C(O)C3=C(C)C(OC(=O)C(O)C(NC(=O)OC(C)(C)C)c4ccccc4)CC(O)(C(OC(=O)c4ccccc4)C21)C3(C)C (stereo not drawn) + CC1OCC2(CCN(c3cnc(Sc4ccnc(N)c4Cl)c(N)n3)CC2)C1N
# output 24.1

###

Entries annotated with measured pIC50
Tested on: KRAS PDC tumor spheroids (HUVEC+MSC), viability
Test: Anticancer human tumor 254851-301-R-J1-PDC cell line growth inhibition [KRAS2];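 note: spheroids exposed to compounds for seven days before readout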
Details: curve of first compound; second compound 10 µM
pIC50: −log10 of the molar value.

Example entries begin here.
# input Complete the entry with pIC50 for CN(C)C/C=C/C(=O)Nc1cc2c(Nc3ccc(F)c(Cl)c3)ncnc2cc1O[C@H]1CCOC1 + CC1OCC2(CCN(c3cnc(Sc4ccnc(N)c4Cl)c(N)n3)CC2)C1N
# output 7.20

# input Using known records, supply pIC50 for CCNC(=O)CC1N=C(c2ccc(Cl)cc2)c2cc(OC)ccc2-n2c(C)nnc21 (stereo not drawn) + CNCc1ccccc1-c1csc(C(C)Nc2nc(C)nc3cc(OC)c(OC)cc23)c1
# output > 7.50

For the next question, use this compound.
# input Give the value of pIC50 reported for the following: CCN1CCN(Cc2ccc(Nc3ncc(F)c(-c4cc(F)c5nc(C)n(C(C)C)c5c4)n3)nc2)CC1 + C=CC(=O)N1CCN(c2nc(=O)n(-c3c(C)ccnc3C(C)C)c3nc(-c4c(O)cccc4F)c(F)cc23)C(C)C1
# output < 6.00

###

System: KRAS PDC tumor spheroids (HUVEC+MSC), viability
Test: Anticancer human tumor 254851-301-R-J1-PDC cell line growth inhibition [KRAS2];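 note: spheroids exposed to compounds for seven days before readout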;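 for viability, T/C: 100% = DMSO vehicle control luminescence of the spheroids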
Conditions: second compound 3.16 µM; first compound 0.0001 µM; stronger effect = lower value
measurement_name: viability, T/C (%)
Quick reminder: number only, in %, skip the unit.

Take a look at these entries with their results.
# input Provide viability, T/C, system KRAS PDC tumor spheroids (HUVEC+MSC), viability, entry CC(=O)Nc1cccc(-n2c(=O)n(C3CC3)c(=O)c3c(Nc4ccc(I)cc4F)n(C)c(=O)c(C)c32)c1 + C=CC(=O)N1CCN(c2nc(OCC3CCCN3C)nc3c2CCN(c2cccc4cccc(C)c24)C3)CC1CC#N
# output 76.9

# input Print KRAS PDC tumor spheroids (HUVEC+MSC), viability viability, T/C for CC(=O)Nc1cccc(-n2c(=O)n(C3CC3)c(=O)c3c(Nc4ccc(I)cc4F)n(C)c(=O)c(C)c32)c1 + CNCc1ccccc1-c1csc(C(C)Nc2nc(C)nc3cc(OC)c(OC)cc23)c1 .
# output 72.5

# input Specify viability, T/C for CC(=O)Nc1cccc(-n2c(=O)n(C3CC3)c(=O)c3c(Nc4ccc(I)cc4F)n(C)c(=O)c(C)c32)c1 + C=CC(=O)N1CCN(c2nc(=O)n(-c3c(C)ccnc3C(C)C)c3nc(-c4c(O)cccc4F)c(F)cc23)C(C)C1 , system KRAS PDC tumor spheroids (HUVEC+MSC), viability.
# output 98.5

Others:
# input Provide the reported viability, T/C (system: KRAS PDC tumor spheroids (HUVEC+MSC), viability) for CC(=O)Nc1cccc(-n2c(=O)n(C3CC3)c(=O)c3c(Nc4ccc(I)cc4F)n(C)c(=O)c(C)c32)c1 + CC1OCC2(CCN(c3cnc(Sc4ccnc(N)c4Cl)c(N)n3)CC2)C1N
# output 66.2

# input State recorded viability, T/C with KRAS PDC tumor spheroids (HUVEC+MSC), viability, entry CC(=O)Nc1cccc(-n2c(=O)n(C3CC3)c(=O)c3c(Nc4ccc(I)cc4F)n(C)c(=O)c(C)c32)c1 + COc1cc2nc(C)nc(NC(C)c3cc(N)cc(C(F)(F)F)c3)c2cc1OC1CCOC1 , no comment.
# output 100

###

System: KRAS PDC tumor spheroids (HUVEC+MSC), viability
Experiment: Anticancer human tumor 254851-301-R-J1-PDC cell line growth inhibition [KRAS2]; active = viability on the fitted dose curve at most 10% of control; inactive = the rest;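 note: spheroids exposed to compounds for seven days before readout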
Settings: second compound 10 µM; first compound 0.0001 µM
Classes to choose from: active, inactive

Consider the following illustrative entries.
# input Assay outcome for CC(=O)Nc1cccc(-n2c(=O)n(C3CC3)c(=O)c3c(Nc4ccc(I)cc4F)n(C)c(=O)c(C)c32)c1 + CNCc1ccccc1-c1csc(C(C)Nc2nc(C)nc3cc(OC)c(OC)cc23)c1 : what was it?
# output active

# input How did this test come out for CC(=O)Nc1cccc(-n2c(=O)n(C3CC3)c(=O)c3c(Nc4ccc(I)cc4F)n(C)c(=O)c(C)c32)c1 + C=CC(=O)N1CCN(c2nc(=O)n(-c3c(C)ccnc3C(C)C)c3nc(-c4c(O)cccc4F)c(F)cc23)C(C)C1 ?
# output inactive

Next:
# input Record request — test call for CC(=O)Nc1cccc(-n2c(=O)n(C3CC3)c(=O)c3c(Nc4ccc(I)cc4F)n(C)c(=O)c(C)c32)c1 + CC1OCC2(CCN(c3cnc(Sc4ccnc(N)c4Cl)c(N)n3)CC2)C1N
# output inactive

# input What is the recorded call for this molecule in the test? CC(=O)Nc1cccc(-n2c(=O)n(C3CC3)c(=O)c3c(Nc4ccc(I)cc4F)n(C)c(=O)c(C)c32)c1 + COc1cc2nc(C)nc(NC(C)c3cc(N)cc(C(F)(F)F)c3)c2cc1OC1CCOC1
# output inactive
